# Tested on: HL-60
# PROTOCOL TEXT: Growth inhibition of human HL60 cells at 40 uM after 48 hrs by MTS assay relative to control
# Assay type: functional
# CONDITION DETAILS: HL-60, 48 h, read-out: GI
EXPERIMENTAL ENDPOINT: inhibition of growth at 40 µM

COMPOUND	TARGET OR TEST SYSTEM	inhibition of growth at 40 µM
C=C(C)C(O)Cc1c(O)cc(O)c2c(=O)cc(Oc3ccc(O)cc3)oc12 (stereo not drawn)	HL-60	> 50%
CC(C)=CCc1cc(-c2cc(=O)c3c(O)cc(O)c(CC=C(C)C)c3o2)cc(CC=C(C)C)c1O	HL-60	> 50%
COc1cc(O)c2c(=O)cc(Oc3ccc(O)cc3)oc2c1C[C@@H](O)C(C)(C)O	HL-60	> 50%

Working through the 5 compounds below one at a time, give inhibition of growth at 40 µM for each.
1. CC(C)=CCc1cc(Oc2cc(=O)c3c(O)cc(O)c(CC=C(C)C)c3o2)ccc1O
2. CC(C)=CCc1cc(Oc2cc(=O)c3c(O)cc(O)c(CC=C(C)C)c3o2)cc(CC=C(C)C)c1O
3. CC(C)=CCc1c(O)cc(O)c2c(=O)cc(Oc3ccc(O)cc3)oc12
4. COc1cc(O)c2c(=O)cc(Oc3ccc(O)cc3)oc2c1CC=C(C)C
5. COc1ccc(-c2oc3c(c(O)cc4oc(C(C)(C)O)cc43)c(=O)c2O[C@@H]2O[C@@H](C)[C@H](O)[C@@H](O)[C@H]2O[C@@H]2O[C@@H](C)[C@H](O)[C@@H](O)[C@H]2O)cc1

> 50%
> 50%
> 50%
> 50%
> 50%

====

# Tested on: A549
# PROTOCOL TEXT: Cytotoxicity against human A549 cells after 48 hrs by MTS assay
# Assay type: functional, cell-based
# CONDITION DETAILS: A549, 48 h
Hi there, I'd appreciate the recorded IC50 for every entry that follows.

// solved cases for IC50 follow
COMPOUND	TARGET OR TEST SYSTEM	IC50
COc1cc(O)c2c(=O)cc(Oc3ccc(O)cc3)oc2c1C[C@@H](O)C(C)(C)O	A549	> 10 µM
CC(C)=CCc1c(O)cc(O)c2c(=O)cc(Oc3ccc(O)cc3)oc12	A549	> 10 µM
CC(C)=CCc1cc(Oc2cc(=O)c3c(O)cc(O)c(CC=C(C)C)c3o2)cc(CC=C(C)C)c1O	A549	> 10 µM
CC(C)=CCc1cc(-c2cc(=O)c3c(O)cc(O)c(CC=C(C)C)c3o2)cc(CC=C(C)C)c1O	A549	7.1 µM
CC(=O)O[C@H]1C(=O)[C@@]2(C)[C@H]([C@H](OC(=O)c3ccccc3)[C@]3(O)C[C@H](OC(=O)[C@H](O)[C@@H](NC(=O)c4ccccc4)c4ccccc4)C(C)=C1C3(C)C)[C@]1(OC(C)=O)CO[C@@H]1C[C@@H]2O	A549	< 0.008 µM

Fill in IC50 for each of the 4 compounds listed.
1. COc1cc(O)c2c(=O)cc(Oc3ccc(O)cc3)oc2c1CC=C(C)C
2. COc1ccc(-c2oc3c(c(O)cc4oc(C(C)(C)O)cc43)c(=O)c2O[C@@H]2O[C@@H](C)[C@H](O)[C@@H](O)[C@H]2O[C@@H]2O[C@@H](C)[C@H](O)[C@@H](O)[C@H]2O)cc1
3. C=C(C)C(O)Cc1c(O)cc(O)c2c(=O)cc(Oc3ccc(O)cc3)oc12 (centres undefined)
4. CC(C)=CCc1cc(Oc2cc(=O)c3c(O)cc(O)c(CC=C(C)C)c3o2)ccc1O

> 10 µM
> 10 µM
> 10 µM
> 10 µM

Source listed as ChEMBL document CHEMBL4130617.
